experimental.protocol: qHTS Assay for inhibitors of the human cytomegalovirus (HCMV); note: % is set by controls: 0 for no effect and ±100 for the full control effect
condition.details: HFF cells, HCMV-luciferase reporter, 72 h; at 57.5 µM; stronger effect = lower value
Screen size: about 410,000 compounds; about 18,000 (4.4%) were called active. About 7% were inconclusive and are not listed. For the sample, actives were picked, then their nearest neighbours and some compounds at random.
quantity.kind: activity change, negative = inhibition (%)
Numbers only, in %.

>>> print(df.to_string())
                                   molecule  readout_unit    val
0  CN1CCN(CCCNC(=O)c2ccc(/C=C3\Oc4ccccc4N(Cc4ccc(Cl)cc4)C3=O)cc2)CC1             %   -110
1  Cn1c(CNC(=O)c2ccco2)nnc1SCC(=O)N1CCN(c2ccccc2)CC1             %   9.34
2  Cn1nc(-c2ccccc2)c(-c2ccccc2)c(C(=O)Nc2ccc(S(N)(=O)=O)cc2)c1=O             %   6.63
3  CC(C)(C)C(=O)CSc1ccc(S(=O)(=O)N2CCCC2)cn1             %      0
4  Cc1cc(C)nc(-n2nc(C)cc2NC(=O)c2ccc(F)cc2F)n1             %  -89.4

Fill in activity change, negative = inhibition for each of the 4 molecules listed.
1. CCc1ccc(CNC(=O)C2CCN(c3nnc(C)c4c(C)n(-c5ccc(C)cc5)nc34)CC2)cc1
2. CC(=O)N1CCN(c2ccc(NCc3ccc(C(C)C)cc3)cc2)CC1
3. Cn1c(Cc2cccc3ccccc23)nnc1SCC(=O)N1CCN(c2cccc(Cl)c2)CC1
4. O=C1NC(=Nc2ccc(Cl)cc2)SC1Cc1cccc(Cl)c1Cl (stereo unspecified)

1. -8.15
2. -36.3
3. -71.4
4. -64.5

Hi, could you look up activity change, negative = inhibition for each item in my list?
1. CSc1ncnc2c1ncn2CC(=O)C1CCC2C3CCC4=CC(=O)CCC4(C)C3CCC12C (stereo unspecified)
2. CCc1ccc(N2C(=O)CN(S(=O)(=O)CC)CC2(C)C(=O)NC2CCCCC2)cc1 (stereo unspecified)
3. CC(=O)Nc1ccc(NC(=O)c2cc3sccc3n2Cc2ccc(F)cc2)cc1

-83
0
-10

Record activity change, negative = inhibition per entry; entries follow.
1. Cc1ccc(OCCSc2nc(C)c(Cc3ccccc3)c(=O)[nH]2)cc1
2. COc1ccc(-c2nc3nc(C)cc(C)n3c2Nc2c(C)cccc2C)cc1

[-3.53, -8]

Give activity change, negative = inhibition for all molecules that follow.
1. CSc1ncnc2c1ncn2CCCNCC1CCCCC1
2. CC(C)=N/N=C1/NC(=O)C(Cc2ccccc2)S1 (stereo unspecified)
3. CCSc1nnc(NC(=O)c2cc(=O)c3cc(C)c(C)cc3o2)s1
4. COCCNC(=O)c1ccc2c(c1)N(Cc1cccc(Cl)c1)C(=O)c1ccccc1S2(=O)=O
5. CCNC(=O)C1CCCN(C(=O)c2cc(F)ccc2C)CC1 (stereo unspecified)
6. CCC(C)Nc1oc(-c2ccc(COc3ccc(Cl)cc3)o2)nc1C#N (stereo unspecified)
7. CC(=O)N/C(=N/c1nc(C)cc(C)n1)Nc1ccc(F)cc1F

1: 8.49; 2: 29.3; 3: 1.6; 4: 5.49; 5: -4.35; 6: -28.6; 7: -32.1

All values here come from PubChem BioAssay AID1259415.
